Experiment: Plasma protein binding, equilibrium dialysis, beagle dog plasma
Type: in vitro ADME
Conditions: dog plasma, measured concentration 2.62 × 10^3 ng ml^−1, read-out: protein binding (converted)
recorded endpoint: fraction unbound at 9 h

1) COCCOC(=O)c1cncn1[C@H](C)c1ccccc1.Cl [ET-26-HCl] :: 0.369

====

Assay: Pharmacokinetics in beagle dogs after intravenous administration
Format: in vivo
Conditions: both sexes, dog, plasma, iv; beagle dogs, 2.09 mg kg^−1
recorded endpoint: AUC0-t

1. COCCOC(=O)c1cncn1[C@H](C)c1ccccc1.Cl [ET-26-HCl] :: 62700 ng·h/mL

====

Assay: Pharmacokinetics in beagle dogs after intravenous administration
Type: in vivo
Details: both sexes, beagle, dog, plasma, iv, 4.18 mg/kg, beagle dogs, 4.18 mg kg^−1
recorded endpoint: Vd (L/kg)

1) COCCOC(=O)c1cncn1[C@H](C)c1ccccc1.Cl [ET-26-HCl] :: 4.63

====

Assay: Pharmacokinetics in beagle dogs after intravenous administration
Type: in vivo
Settings: both sexes, dog, plasma, iv; beagle dogs, 2.09 mg kg^−1
recorded endpoint: Cmax (ng/mL)

1) COCCOC(=O)c1cncn1[C@H](C)c1ccccc1.Cl [ET-26-HCl] :: 2850

====

Experiment: Plasma protein binding, equilibrium dialysis, mouse plasma
Type: in vitro ADME
Details: measured concentration 2.62 × 10^3 ng ml^−1, read-out: protein binding (converted)
recorded endpoint: fraction unbound at 9 h

1) COCCOC(=O)c1cncn1[C@H](C)c1ccccc1.Cl [ET-26-HCl] :: 0.0539

====

Test: Plasma protein binding, equilibrium dialysis, human plasma
Type: in vitro ADME
Conditions: human, plasma, measured concentration 654 ng ml^−1
recorded endpoint: fraction unbound at 9 h, 654 ng ml^−1

1) COCCOC(=O)c1cncn1[C@H](C)c1ccccc1.Cl [ET-26-HCl] :: 0.372

====

Assay: Plasma protein binding, equilibrium dialysis, beagle dog plasma
Type: in vitro ADME
Conditions: beagle dog plasma, overall over the three concentrations, read-out: plasma protein binding rate (converted)
recorded endpoint: fraction unbound at 9 h

1) COCCOC(=O)c1cncn1[C@H](C)c1ccccc1.Cl [ET-26-HCl] :: 0.34

====

Experiment: Plasma protein binding, equilibrium dialysis, beagle dog plasma
Type: in vitro ADME
Settings: dog plasma, measured concentration 5.23 × 10^3 ng ml^−1, read-out: protein binding (converted)
recorded endpoint: fraction unbound at 9 h

1. COCCOC(=O)c1cncn1[C@H](C)c1ccccc1.Cl [ET-26-HCl] :: 0.306

====

Assay: Plasma protein binding, equilibrium dialysis, human plasma
Format: in vitro ADME
Conditions: human, plasma, measured concentration 5.23 × 10^3 ng ml^−1, read-out: protein binding (converted)
recorded endpoint: fraction unbound at 9 h

1. COCCOC(=O)c1cncn1[C@H](C)c1ccccc1.Cl [ET-26-HCl] :: 0.261

====

Assay: Plasma protein binding, equilibrium dialysis, human plasma
Assay type: in vitro ADME
Details: human, plasma, measured concentration 2.62 × 10^3 ng ml^−1, read-out: protein binding (converted)
recorded endpoint: fraction unbound at 9 h

1) COCCOC(=O)c1cncn1[C@H](C)c1ccccc1.Cl [ET-26-HCl] :: 0.318

====

Assay: Metabolic stability in mouse liver microsomes
Format: in vitro ADME
Conditions: mouse, liver microsomes, pH 7.4, mouse liver microsomes, Cprotein 0.33 mg ml^−1
recorded endpoint: half-life

1. COCCOC(=O)c1cncn1[C@H](C)c1ccccc1.Cl [ET-26-HCl] :: < 5 min

====

Test: Pharmacokinetics in beagle dogs after intravenous administration
Format: in vivo
Details: both sexes, dog, plasma, iv; beagle dogs, 4.18 mg kg^−1
recorded endpoint: AUC0-t (µg·h/mL)

1. COCCOC(=O)c1cncn1[C@H](C)c1ccccc1.Cl [ET-26-HCl] :: 130

====

Assay: Pharmacokinetics in beagle dogs after intravenous administration
Type: in vivo
Settings: both sexes, dog, plasma, iv; beagle dogs, 4.18 mg kg^−1
recorded endpoint: clearance

1. COCCOC(=O)c1cncn1[C@H](C)c1ccccc1.Cl [ET-26-HCl] :: 25 mL/min/kg

====

Assay: Plasma protein binding, equilibrium dialysis, rat plasma
Format: in vitro ADME
Conditions: overall over the three concentrations, read-out: plasma protein binding rate (converted)
recorded endpoint: fraction unbound at 9 h

1) COCCOC(=O)c1cncn1[C@H](C)c1ccccc1.Cl [ET-26-HCl] :: 0.17

====

Experiment: Plasma protein binding, equilibrium dialysis, rat plasma
Type: in vitro ADME
Conditions: measured concentration 2.62 × 10^3 ng ml^−1, read-out: protein binding (converted)
recorded endpoint: fraction unbound at 9 h

1. COCCOC(=O)c1cncn1[C@H](C)c1ccccc1.Cl [ET-26-HCl] :: 0.15

====

Test: Plasma protein binding, equilibrium dialysis, monkey plasma
Format: in vitro ADME
Settings: measured concentration 5.23 × 10^3 ng ml^−1, read-out: protein binding (converted)
recorded endpoint: fraction unbound at 9 h

1. COCCOC(=O)c1cncn1[C@H](C)c1ccccc1.Cl [ET-26-HCl] :: 0.357
